These data points were gathered from patent EP0269841A1.

# System: oreillette gauche du cobaye isolée et stimulée électriquement
# experimentalDetails: In vitro inotropic (cardiotonic) activity: contraction force of isolated, electrically stimulated guinea pig left atrium
# Format: cell-based
# recordedConditions: significant response = basal contraction force increased by more than 40 %; isolated left atrium of guinea pig, electrically stimulated; read-out: Cardiotonique (concentration minimale efficace en ug/ml produisant une réponse significative)
Kindly state log10 minimal effective concentration for each of the entries shown.
Heads up: the numbers are on a log10 scale; they represent minimal effective concentration in µg/mL.

CCCn1c(=O)n(CCCO)c(=O)c2[nH]cnc21 : 0.11
CCn1c(=O)n(CCCCO)c(=O)c2[nH]cnc21 : 0.52
CCCCn1c(=O)n(CC(C)O)c(=O)c2[nH]cnc21 (stereo not drawn) [Xanthine No. 6, 1-(2-Hydroxypropyl)-3-butylxanthine] : 0.52

Give one value of log10 minimal effective concentration per listed molecule.
1. Cc1nc2c([nH]1)c(=O)n(CCCCO)c(=O)n2CC(C)C
2. CCCn1c(=O)n(CCCO)c(=O)c2[nH]c(C)nc21
3. CC(C)Cn1c(=O)n(C)c(=O)c2[nH]cnc21 [IBMX, 1-méthyl-3-isobutylxanthine, reference compound]
4. Cn1c(=O)n(CCCCCO)c(=O)c2[nH]cnc21
5. CCCn1c(=O)n(CC(C)O)c(=O)c2[nH]c(C)nc21 (stereo not drawn)
6. CCCn1c(=O)n(CCCO)c(=O)c2[nH]c(CC)nc21
7. CCCCn1c(=O)n(CCCCO)c(=O)c2[nH]cnc21
8. CCCn1c(=O)n(CCCCO)c(=O)c2[nH]c(C)nc21

A:
1. 1.40
2. 0.62
3. -0.30
4. 0.83
5. -0.22
6. 0.30
7. 0.30
8. -0.15

Can you give me log10 minimal effective concentration for all of these, one by one?
1. CCCCn1c(=O)n(CCCO)c(=O)c2[nH]cnc21
2. Cc1nc2c([nH]1)c(=O)n(CCCO)c(=O)n2CC(C)C
3. CCCn1c(=O)n(CCCC(C)O)c(=O)c2[nH]cnc21 (stereo not drawn)

A:
1. -0.40
2. -0.30
3. -0.15

Q: Recall the recorded log10 minimal effective concentration for Cn1c(=O)c2[nH]cnc2n(C)c1=O [Theophylline, reference compound] with oreillette gauche du cobaye isolée et stimulée électriquement and state it.
A: 1.18
